Data credit: ChEMBL document CHEMBL4480454

Species on record: Sus scrofa
ASSAY METHOD TEXT: Inhibition of porcine brain tubulin alpha/beta polymerization at 50 uM measured every minute for 60 mins relative to colchicine
Decide by inhibition: equal to or exceeding 50% means Satisfied, less means Not satisfied.

Tell me whether inhibition is at least 50% here: `Cc1cc2c(cc1OC(=O)c1ccccc1)[C@H](C)CCC[C@]1(C)O[C@H]21`
Satisfied

Hello, I need to know if `Cc1cc2c(cc1O)[C@H](C)CC[C@@H]1O[C@]1(C)C2` has measured inhibition not below 50%. Thanks!
Not satisfied

Check if inhibition >= 50% (inclusive). Item: `Cc1cc2c(cc1O)[C@H](C)CCC[C@]1(C)O[C@H]21`
Not satisfied

For this compound, is measured inhibition 50% or higher? `C/C1=C/CC[C@@H](C)c2cc(O)c(C)cc2C1`
Satisfied

Please tell me: is the compound `Cc1cc2c(cc1OC(=O)c1ccccc1)[C@H](C)CC[C@@H]1O[C@]1(C)C2` at or over 50% in terms of inhibition?
Not satisfied

Given the entry `Cc1cc2c(cc1OC(=O)c1ccccc1)[C@@]1(C)CC[C@H](O1)[C@H](C)C2` , answer whether its inhibition meets or surpasses 50%.
Satisfied

In plain terms: is recorded inhibition at least 50% for `Cc1cc2c(cc1OC(=O)c1ccccc1)[C@@]1(C)CCC[C@H](C)[C@@H]2O1` ?
Not satisfied

Is it the case that `C/C1=C/CC[C@@H](C)c2cc(OC(=O)c3ccccc3)c(C)cc2C1` has inhibition reaching or exceeding 50%?
Not satisfied

Dear colleague, could you confirm whether `Cc1cc2c(cc1O)[C@@]1(C)CC[C@H](O1)[C@H](C)C2` has inhibition at or above 50%?
Satisfied

Reported inhibition reaches at least 50% for `C/C1=C/c2cc(C)c(OC(=O)c3ccccc3)cc2[C@H](C)CCC1` ?
Satisfied

hey, is inhibition for this one >= 50%? `Cc1cc2c(cc1O)[C@@]1(C)CCC[C@H](C)[C@@H]2O1`
Satisfied

----------
Organism: Sus scrofa
ASSAY METHOD TEXT: Inhibition of porcine brain tubulin alpha/beta polymerization at 50 uM measured every minute for 90 mins relative to colchicine
So I've got a bunch of molecules here, and I need their inhibition values.

Name the recorded inhibition for `Cc1cc2c(cc1OC(=O)c1ccccc1)[C@H](C)CC[C@@H]1O[C@]1(C)C2` .
42.2%

If you can, please state the reported inhibition value of `Cc1cc2c(cc1O)[C@H](C)CCC[C@]1(C)O[C@H]21` .
36.9%

# query: inhibition of entry `C/C1=C/c2cc(C)c(OC(=O)c3ccccc3)cc2[C@H](C)CCC1`
106%

I would be grateful if you could share the reported inhibition for `Cc1cc2c(cc1O)[C@@]1(C)CCC[C@H](C)[C@@H]2O1` .
62.5%

Query: inhibition; subject: `Cc1cc2c(cc1O)[C@H](C)CC[C@@H]1O[C@]1(C)C2`
44.7%

Please report the recorded inhibition for `Cc1cc2c(cc1OC(=O)c1ccccc1)[C@@]1(C)CCC[C@H](C)[C@@H]2O1` .
-5.7%

Would you kindly share the measured inhibition for `Cc1cc2c(cc1OC(=O)c1ccccc1)[C@H](C)CCC[C@]1(C)O[C@H]21` ?
78.5%

Form field: reported inhibition of `Cc1cc2c(cc1O)[C@@]1(C)CC[C@H](O1)[C@H](C)C2`
67%

Given `C/C1=C/CC[C@@H](C)c2cc(OC(=O)c3ccccc3)c(C)cc2C1` , state its recorded inhibition.
58.9%

Recorded inhibition of `C/C1=C/c2cc(C)c(O)cc2[C@H](C)CCC1` , please.
56.2%

Would you mind telling me what inhibition value was observed for `C/C1=C/CC[C@@H](C)c2cc(O)c(C)cc2C1` ?
66.7%

What value of inhibition has been recorded for this entry: `Cc1cc2c(cc1OC(=O)c1ccccc1)[C@@]1(C)CC[C@H](O1)[C@H](C)C2`
46.9%

----------
Organism: Sus scrofa
ASSAY METHOD TEXT: Inhibition of porcine brain tubulin alpha/beta polymerization at 10 uM measured every minute for 90 mins relative to colchicine
READOUT: inhibition (%)
Please state the figure in %; there is no need to write the unit.

Name the recorded inhibition for `Cc1cc2c(cc1OC(=O)c1ccccc1)[C@@]1(C)CCC[C@H](C)[C@@H]2O1` .
2.1

Requested field: inhibition. Item: `Cc1cc2c(cc1O)[C@@]1(C)CCC[C@H](C)[C@@H]2O1`
21.9

Report inhibition for `Cc1cc2c(cc1OC(=O)c1ccccc1)[C@H](C)CC[C@@H]1O[C@]1(C)C2` please.
47.9

Recorded inhibition of `C/C1=C/CC[C@@H](C)c2cc(OC(=O)c3ccccc3)c(C)cc2C1` , please.
56.3

Can you look up the measured inhibition of `C/C1=C/c2cc(C)c(O)cc2[C@H](C)CCC1` for me?
58.1

----------
Species: Sus scrofa
ASSAY METHOD TEXT: Inhibition of porcine brain tubulin alpha/beta polymerization at 10 uM measured every minute for 60 mins relative to colchicine
Response key: true means inhibition >= 30%; false means inhibition < 30%.

Hi team, for `Cc1cc2c(cc1OC(=O)c1ccccc1)[C@@]1(C)CCC[C@H](C)[C@@H]2O1` , is the recorded inhibition at or above 30%?
false

Is reported inhibition greater than or equal to 30% here: `Cc1cc2c(cc1O)[C@@]1(C)CC[C@H](O1)[C@H](C)C2`
true

Hi, just wondering whether `C/C1=C/CC[C@@H](C)c2cc(O)c(C)cc2C1` shows inhibition of 30% or higher.
false

Tell me whether inhibition is at least 30% here: `C/C1=C/CC[C@@H](C)c2cc(OC(=O)c3ccccc3)c(C)cc2C1`
false

API: above_or_equal(metric=inhibition, cutoff=30%) for item `C/C1=C/c2cc(C)c(OC(=O)c3ccccc3)cc2[C@H](C)CCC1`
true

Could you verify whether the entry `Cc1cc2c(cc1O)[C@H](C)CC[C@@H]1O[C@]1(C)C2` shows inhibition of no less than 30%?
true

Determine whether this molecule has inhibition no lower than 30%: `Cc1cc2c(cc1OC(=O)c1ccccc1)[C@@]1(C)CC[C@H](O1)[C@H](C)C2`
false

For this molecule, is measured inhibition 30% or higher? `Cc1cc2c(cc1OC(=O)c1ccccc1)[C@H](C)CCC[C@]1(C)O[C@H]21`
true

Check this molecule for inhibition at or above 30%: `Cc1cc2c(cc1O)[C@@]1(C)CCC[C@H](C)[C@@H]2O1`
true

----------
Organism: Sus scrofa
ASSAY METHOD TEXT: Inhibition of porcine brain tubulin alpha/beta polymerization at 10 uM measured every minute for 90 mins relative to colchicine
READOUT: inhibition (%)
Quick note: give the figure in %, leave out the unit.

# get_value(readout='inhibition', item= `C/C1=C/c2cc(C)c(OC(=O)c3ccccc3)cc2[C@H](C)CCC1` )
35.4

I would be grateful if you could share the reported inhibition for `Cc1cc2c(cc1O)[C@H](C)CCC[C@]1(C)O[C@H]21` .
8.3

Please give the measured inhibition for this compound: `Cc1cc2c(cc1O)[C@H](C)CC[C@@H]1O[C@]1(C)C2`
46.9

Data request, read-out inhibition, for `Cc1cc2c(cc1O)[C@@]1(C)CC[C@H](O1)[C@H](C)C2`
43.7

Request the reported inhibition associated with `C/C1=C/CC[C@@H](C)c2cc(O)c(C)cc2C1`
51

What does the data say about its inhibition? Entry: `Cc1cc2c(cc1OC(=O)c1ccccc1)[C@H](C)CCC[C@]1(C)O[C@H]21`
97.9
